Origin of values: patent US20230303994

- system.name: pre-pro-insulin glargine
measured.parameter: desThr (area %)
One number for each entry, in area %.

Sample records with desThr:
trypsin variant SEQ ID NO: 36 (protein) IVGGYTCAANSIPYQVSLNSGSHRCGGSLINSQWVVSAAHCYKSRIQVRLGEHNIDVLEGNEQFINAAKIITHPNFNGNTLDNDIMLIKLSSPATLNSRVATVSLPRSCAAAGTECLISGWGNTKSSGSSMPSLLQCLKAPVLSDSSCKSSYPGQITGNMICVGFLEGGKDACQGDSGGPVVCNGQLQGIVSSGYGCAQKNKPGVYTKVCNYVNWIQQTIAAN : 1.5
trypsin variant SEQ ID NO: 53 (protein) IVGGYTCAANSIPYQVSLNSGSHRCGGSLINSQWVVSAAHCYKPRIQVRLGEHNIDVLEGNEQFINAAKIITHPNFNGNTLDNDIMLIKLSSPATLNSRVATVSLPRSCAAAGTECLISGWGNTKSSGSSYPSLLQCLKAPVLSDSSCKSSYPGQITGNMICVGFLEGGKDACQGDSGGPVVCNGQLQGIVSSGYGCAQKNKPGVYTKVCNYVNWIQQTIAAN : 2.1
trypsin variant SEQ ID NO: 97 (protein) IVGGYTCAANSIPYQVSLNSGSHRCGGSLINSQWVVSAAHCYKPRIQVRLGEHNIHVLEGNEQFINAAKIITHPNFNPNTLDNDIMLIKLSSPATLNSAVATVSLPTSCAAAGTECLISGWGNTASSGSSMPSLLQCLKAPVLSDSSCKSSYPGQITGNMICVGFLEGGADACQGDSGGPVVCNGQLQGIVSSGYGCAQKNKPGVYTKVCNYVNWIQQTIAAN : 1.2
trypsin variant SEQ ID NO: 117 (protein) IVGGYTCAANSIPYQVSLNSGSHRCGGSLINSQWVVSAAHCYKPRIQVRLGEHNIHVLEGNEQFINAAKIITHPNFNGNTLDNDIMLIKLSSPATLNSNVATVSLPTSCAAAGTECLISGWGNTASSGSSMPSLLQCLKAPVLSDSSCKSSYPGQITGNMICVGFLEGGKDACQGDSGGPVVCNGQLQGIVSSGYGCAQKNKPGVYTKVCNYVNWIQQTIAAN : 0.8
trypsin variant SEQ ID NO: 4 (protein) IVGGYTCAANSIPYQVSLNSGSHRCGGSLINSQWVVSAAHCYKSRIQVRLGEHNIDVLEGNEQFINAAKIITHPNFNGNTLDNDIMLIKLSSPATLNSAVATVSLPRSCAAAGTECLISGWGNTKSSGSSYPSLLQCLKAPVLSDSSCKSSYPGQITGNMICVGFLEGGKDACQGDSGGPVVCNGQLQGIVSSGYGCAQKNKPGVYTKVCNYVNWIQQTIAAN : 2.9

# map each protein to its desThr
1. trypsin variant SEQ ID NO: 18 (protein) IVGGYTCAANSIPYQVSLNSGSHRCGGSLINSQWVVSAAHCYKSRIQVRLGEHNIDVLEGNEQFINAAKIITHPNFNGNTLDNDIMLIKLSSPATLNSRVATVSLPRSCAAAGTECLISGWGNTSSSGSSYPSLLQCLKAPVLSDSSCKSSYPGQITGNMICVGFLEGGKDACQGDSGGPVVCNGQLQGIVSSGYGCAQKNKPGVYTKVCNYVNWIQQTIAAN
2. trypsin variant SEQ ID NO: 73 (protein) IVGGYTCAANSIPYQVSLNSGSHRCGGSLINSQWVVSAAHCYKSRIQVRLGEHNIDVLEGNEQFINAAKIITHPNFNANTLDNDIMLIKLSSPATLNSRVATVSLPRSCAAAGTECLISGWGNTKSSGSSYPSLLQCLKAPVLSDSSCKSSYPGQITGNMICVGFLEGGKDACQGDSGGPVVCNGQLQGIVSSGYGCAQKNKPGVYTKVCNYVNWIQQTIAAN
3. trypsin variant SEQ ID NO: 83 (protein) IVGGYTCAANSIPYQVSLNSGSHRCGGSLINSQWVVSAAHCYKPRIQVRLGEHNIHVLEGNEQFINAAKIITHPNFNPNTLDNDIMLIKLSSPATLNSNVATVSLPTSCAAAGTECLISGWGNTSSSGSSMPSLLQCLKAPVLSDSSCKSSYPGQITGNMICVGFLEGGKDACQGDSGGPVVCNGQLQGIVSSGYGCAQKNKPGVYTKVCNYVNWIQQTIAAN

Result:
1. 1.9
2. 2.2
3. 1.2
